Assay: AUC (0 to t) in Sprague-Dawley rat at 5 mg/kg, iv measured upto 24 hrs by LC-MS/MS analysis
Assay type: ADME, organism-based
Details: in vivo
test_readout: AUC(0-t) at 24 h (ng·h/mL)
State just the number; it will be interpreted in ng·h/mL.

Give the measured AUC(0-t) at 24 h of O=C(Nc1nccs1)c1cccc2[nH]c(-c3ccc(OC(F)F)c(OCC4CC4)c3)nc12 .
23200

----------
Experiment: Cmax in Sprague-Dawley rat at 10 mg/kg, po measured upto 24 hrs by LC-MS/MS analysis
Format: ADME, organism-based
Details: in vivo
test_readout: Cmax (ng/mL)
Respond with the bare value in ng/mL.

Sample O=C(Nc1nccs1)c1cccc2[nH]c(-c3ccc(OC(F)F)c(OCC4CC4)c3)nc12 — what was its Cmax?
219

----------
Assay: Clearance in Sprague-Dawley rat at 5 mg/kg, iv measured upto 24 hrs by LC-MS/MS analysis
Assay type: ADME, organism-based
Settings: in vivo
test_readout: clearance (mL/min/kg)
Supply the numeric figure in mL/min/kg, leaving out any unit text.

Name the reported clearance value associated with the compound O=C(Nc1nccs1)c1cccc2[nH]c(-c3ccc(OC(F)F)c(OCC4CC4)c3)nc12
3.62

----------
Test system: RAW264.7
Assay: cells
Conditions: Mus musculus
test_readout: pIC50
# pIC50 is unitless: minus log10 of the molar concentration; print number only

// query pIC50 value for entry O=C(Nc1nccs1)c1cccc2[nH]c(-c3ccc(OC(F)F)c(OCC4CC4)c3)nc12
4.53

----------
Molecular target: 3',5'-cyclic-AMP phosphodiesterase 4B (Homo sapiens)
Sequence (Q07343 whole entry): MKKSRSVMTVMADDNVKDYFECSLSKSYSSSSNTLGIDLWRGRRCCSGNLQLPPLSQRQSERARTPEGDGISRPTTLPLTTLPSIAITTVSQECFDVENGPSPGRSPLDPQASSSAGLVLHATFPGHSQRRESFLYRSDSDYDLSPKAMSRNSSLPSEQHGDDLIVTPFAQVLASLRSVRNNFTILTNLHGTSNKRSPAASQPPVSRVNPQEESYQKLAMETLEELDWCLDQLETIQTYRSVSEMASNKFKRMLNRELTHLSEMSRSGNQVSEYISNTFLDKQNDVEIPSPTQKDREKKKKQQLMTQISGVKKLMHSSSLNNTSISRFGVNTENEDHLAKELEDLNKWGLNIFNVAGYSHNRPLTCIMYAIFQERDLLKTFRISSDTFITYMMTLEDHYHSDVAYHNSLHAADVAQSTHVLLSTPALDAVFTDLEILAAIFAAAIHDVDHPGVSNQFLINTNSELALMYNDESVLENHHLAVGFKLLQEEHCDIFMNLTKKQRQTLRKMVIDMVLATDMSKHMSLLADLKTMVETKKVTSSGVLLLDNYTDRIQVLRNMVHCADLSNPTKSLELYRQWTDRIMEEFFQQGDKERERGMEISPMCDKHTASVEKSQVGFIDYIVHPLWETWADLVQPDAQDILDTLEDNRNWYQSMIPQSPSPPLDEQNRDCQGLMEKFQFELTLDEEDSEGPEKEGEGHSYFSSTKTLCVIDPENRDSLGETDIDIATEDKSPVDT
Assay: Inhibition of recombinant full length PDE4B (unknown origin) using FAM-cAMP as substrate at 1 uM preincubated with compound for compound for 15 mins followed by substrate addition and measured after 30 mins by Envision multilabel reader analysis relative to control
Conditions: time 45.0 min
Below: a set of entries, each annotated with reported inhibition.
The response must be a number in % with no trailing unit.

Would you please look over these solved cases?
COc1ccc(-c2ccc3[nH]c(-c4ccc(OC(F)F)c(OCC5CC5)c4)nc3c2)cc1OC: 80.9
O=C(ON1C(=O)CCC1=O)c1cccc2[nH]c(-c3ccc(OC(F)F)c(OCC4CC4)c3)nc12: 91.5
O=C(NCc1ccc2ccccc2c1)c1cccc2[nH]c(-c3ccc(OC(F)F)c(OCC4CC4)c3)nc12: 90.1
O=C(Nc1ccc2ncsc2c1)c1cccc2[nH]c(-c3ccc(OC(F)F)c(OCC4CC4)c3)nc12: 79.3
Cn1cc(NC(=O)c2cccc3[nH]c(-c4ccc(OC(F)F)c(OCC5CC5)c4)nc23)cn1: 93.6

// lookup inhibition for O=C(NCc1cc(F)ccc1F)c1cccc2[nH]c(-c3ccc(OC(F)F)c(OCC4CC4)c3)nc12
88.8

Given O=C(O)c1ccc(NNC(=O)c2cccc3[nH]c(-c4ccc(OC(F)F)c(OCC5CC5)c4)nc23)cc1 , state its recorded inhibition.
96.2

Requested field: inhibition. Item: O=C(NCc1cccc(F)c1F)c1cccc2[nH]c(-c3ccc(OC(F)F)c(OCC4CC4)c3)nc12
91.9

For the compound shown here, FC(F)Oc1ccc(-c2nc3cc(-c4ccncc4)ccc3[nH]2)cc1OCC1CC1 , give the reported inhibition.
81.4

Which value of inhibition has been reported for COc1ccc(-c2nc3cc(C(=O)NCc4ccc(F)cc4F)ccc3[nH]2)cc1OCC1CC1 in the records?
23.3

Request the reported inhibition associated with O=C(Nc1nc2ccccc2s1)c1cccc2[nH]c(-c3ccc(OC(F)F)c(OCC4CC4)c3)nc12
53.1

Give the measured inhibition of O=C(NCc1ncccn1)c1cccc2[nH]c(-c3ccc(OC(F)F)c(OCC4CC4)c3)nc12 .
95.5

Please give the measured inhibition for this compound: O=C(NCc1cc(F)cc(F)c1)c1cccc2[nH]c(-c3ccc(OC(F)F)c(OCC4CC4)c3)nc12
82.4

# query: inhibition of entry O=C(NCc1ccc(F)cc1F)c1ccc2[nH]c(-c3ccc(OC(F)F)c(OCC4CC4)c3)nc2c1
24.8

Entry O=C(NCc1ccccc1)c1cccc2[nH]c(-c3ccc(OC(F)F)c(OCC4CC4)c3)nc12 has what inhibition?
92.2

Endpoint output: inhibition of O=C(NCC1CCOCC1)c1cccc2[nH]c(-c3ccc(OC(F)F)c(OCC4CC4)c3)nc12 . Value?
94.6

Look up inhibition: O=C(NCc1ccccc1F)c1cccc2[nH]c(-c3ccc(OC(F)F)c(OCC4CC4)c3)nc12
85.2

Would you kindly share the measured inhibition for O=C(Nc1ccccn1)c1cccc2[nH]c(-c3ccc(OC(F)F)c(OCC4CC4)c3)nc12 ?
81.6

Reported inhibition for O=C(Nc1ccccc1)c1cccc2[nH]c(-c3ccc(OC(F)F)c(OCC4CC4)c3)nc12 : what is it?
83.8

// inhibition lookup, key: COc1ccc(CNC(=O)c2cccc3[nH]c(-c4ccc(OC(F)F)c(OCC5CC5)c4)nc23)cn1
93.4
